viability, T/C values by entry
system: 653999-131-R-J2-PDC complex spheroids, growth inhibition; test: Anticancer human tumor 653999-131-R-J2-PDC patient-derived lung adenocarcinoma cell line growth inhibition [RAS]; settings: second compound 0.01 µM; first compound 1 µM; hits give low values;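 also: spheroids exposed to the agents for seven days before the readout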

>  <compound>
Nc1ccn(C2OC(CO)C(O)C2(F)F)c(=O)n1 (configuration not stated) + C=CC(=O)N1CCN(c2nc(OCC3CCCN3C)nc3c(F)c(-c4nc(N)cc(C)c4C(F)(F)F)c(Cl)cc23)C(C)C1

>  <tested-target>
653999-131-R-J2-PDC complex spheroids, growth inhibition;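 also: spheroids exposed to the agents for seven days before the readout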

>  <readout-unit>
%

>  <viability, T/C>
29.7

$$$$
>  <compound>
CC(C)NCC(C(=O)N1CCN(c2ncnc3c2C(C)CC3O)CC1)c1ccc(Cl)cc1 (configuration not stated) + C=CC(=O)N1CCN(c2nc(OCC3CCCN3C)nc3c(F)c(-c4nc(N)cc(C)c4C(F)(F)F)c(Cl)cc23)C(C)C1

>  <tested-target>
653999-131-R-J2-PDC complex spheroids, growth inhibition;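 also: spheroids exposed to the agents for seven days before the readout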

>  <readout-unit>
%

>  <viability, T/C>
61.1

$$$$
>  <compound>
O=C(c1ccc(F)c(F)c1Nc1ccc(I)cc1F)N1CC(O)([C@@H]2CCCCN2)C1 + C=CC(=O)N1CCN(c2nc(OCC3CCCN3C)nc3c(F)c(-c4nc(N)cc(C)c4C(F)(F)F)c(Cl)cc23)C(C)C1

>  <tested-target>
653999-131-R-J2-PDC complex spheroids, growth inhibition;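 also: spheroids exposed to the agents for seven days before the readout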

>  <readout-unit>
%

>  <viability, T/C>
8.42

$$$$
>  <compound>
CC(Nc1ccc2c(c1)OCCn1cc(N3C(=O)OCC3C(F)F)nc1-2)C(N)=O (configuration not stated) + C=CC(=O)N1CCN(c2nc(OCC3CCCN3C)nc3c(F)c(-c4nc(N)cc(C)c4C(F)(F)F)c(Cl)cc23)C(C)C1

>  <tested-target>
653999-131-R-J2-PDC complex spheroids, growth inhibition;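 also: spheroids exposed to the agents for seven days before the readout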

>  <readout-unit>
%

>  <viability, T/C>
42.2

$$$$
>  <compound>
C=CC(=O)Nc1cc(Nc2nccc(-c3cn(C)c4ccccc34)n2)c(OC)cc1N(C)CCN(C)C + C=CC(=O)N1CCN(c2nc(OCC3CCCN3C)nc3c(F)c(-c4nc(N)cc(C)c4C(F)(F)F)c(Cl)cc23)C(C)C1

>  <tested-target>
653999-131-R-J2-PDC complex spheroids, growth inhibition;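 also: spheroids exposed to the agents for seven days before the readout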

>  <readout-unit>
%

>  <viability, T/C>
56

$$$$
>  <compound>
Cc1nc(N2CCC3(CC2)COC(C)C3N)c(CO)nc1Sc1ccnc(N)c1Cl (configuration not stated) + C=CC(=O)N1CCN(c2nc(OCC3CCCN3C)nc3c(F)c(-c4nc(N)cc(C)c4C(F)(F)F)c(Cl)cc23)C(C)C1

>  <tested-target>
653999-131-R-J2-PDC complex spheroids, growth inhibition;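 also: spheroids exposed to the agents for seven days before the readout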

>  <readout-unit>
%

>  <viability, T/C>
80.6

$$$$
>  <compound>
CC(=O)OC12COC1CC(O)C1(C)C(=O)C(O)C3=C(C)C(OC(=O)C(O)C(NC(=O)OC(C)(C)C)c4ccccc4)CC(O)(C(OC(=O)c4ccccc4)C21)C3(C)C (configuration not stated) + C=CC(=O)N1CCN(c2nc(OCC3CCCN3C)nc3c(F)c(-c4nc(N)cc(C)c4C(F)(F)F)c(Cl)cc23)C(C)C1

>  <tested-target>
653999-131-R-J2-PDC complex spheroids, growth inhibition;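 also: spheroids exposed to the agents for seven days before the readout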

>  <readout-unit>
%

>  <viability, T/C>
67.5

$$$$
>  <compound>
CCC(CC)c1cc(NC2CCC(N)C2)n2nccc2n1 (configuration not stated) + C=CC(=O)N1CCN(c2nc(OCC3CCCN3C)nc3c(F)c(-c4nc(N)cc(C)c4C(F)(F)F)c(Cl)cc23)C(C)C1

>  <tested-target>
653999-131-R-J2-PDC complex spheroids, growth inhibition;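 also: spheroids exposed to the agents for seven days before the readout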

>  <readout-unit>
%

>  <viability, T/C>
99

$$$$
>  <compound>
CC1(O)CCCC1n1c(=O)c(C(F)F)cc2cnc(NC3CCN(S(C)(=O)=O)CC3)nc21 (configuration not stated) + C=CC(=O)N1CCN(c2nc(OCC3CCCN3C)nc3c(F)c(-c4nc(N)cc(C)c4C(F)(F)F)c(Cl)cc23)C(C)C1

>  <tested-target>
653999-131-R-J2-PDC complex spheroids, growth inhibition;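 also: spheroids exposed to the agents for seven days before the readout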

>  <readout-unit>
%

>  <viability, T/C>
71.9

$$$$
>  <compound>
NC1c2ccccc2OC12CCN(c1cnc3c(N4CCCc5ncccc54)n[nH]c3n1)CC2 (configuration not stated) + C=CC(=O)N1CCN(c2nc(OCC3CCCN3C)nc3c(F)c(-c4nc(N)cc(C)c4C(F)(F)F)c(Cl)cc23)C(C)C1

>  <tested-target>
653999-131-R-J2-PDC complex spheroids, growth inhibition;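 also: spheroids exposed to the agents for seven days before the readout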

>  <readout-unit>
%

>  <viability, T/C>
89.3

$$$$
>  <compound>
C[C@@H](NC(=O)c1ncnc(N)c1Cl)c1ncc(C(=O)Nc2cc(C(F)(F)F)c(Cl)cn2)s1 + C=CC(=O)N1CCN(c2nc(OCC3CCCN3C)nc3c(F)c(-c4nc(N)cc(C)c4C(F)(F)F)c(Cl)cc23)C(C)C1

>  <tested-target>
653999-131-R-J2-PDC complex spheroids, growth inhibition;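 also: spheroids exposed to the agents for seven days before the readout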

>  <readout-unit>
%

>  <viability, T/C>
93.5

$$$$
>  <compound>
CCN1CCN(Cc2ccc(Nc3ncc(F)c(-c4cc(F)c5nc(C)n(C(C)C)c5c4)n3)nc2)CC1 + C=CC(=O)N1CCN(c2nc(OCC3CCCN3C)nc3c(F)c(-c4nc(N)cc(C)c4C(F)(F)F)c(Cl)cc23)C(C)C1

>  <tested-target>
653999-131-R-J2-PDC complex spheroids, growth inhibition;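 also: spheroids exposed to the agents for seven days before the readout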

>  <readout-unit>
%

>  <viability, T/C>
69.7

$$$$
